// values below are reported interaction score
subject.of.test: T1, APC2375-AA
T1 chain: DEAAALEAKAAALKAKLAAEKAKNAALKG
assay.info: two-hybrid library CCmax;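 further: natural log of median RNA to DNA barcode read ratio; higher means stronger binding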
measurement.setup: mean of both orientations

Reference set, count: 3
{"binder": "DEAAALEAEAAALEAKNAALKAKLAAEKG [APC2257-AA]", "interaction score": -1.42}
{"binder": "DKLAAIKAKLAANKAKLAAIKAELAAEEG [APC1916-AA]", "interaction score": -1.88}
{"binder": "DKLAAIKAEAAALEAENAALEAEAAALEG [APC1242-AA]", "interaction score": -1.54}

Input line: Quick one: interaction score for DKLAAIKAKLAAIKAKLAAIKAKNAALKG [APC1115-AA] ?
Output line: -1.67

Input line: Try the binder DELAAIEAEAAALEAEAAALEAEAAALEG [APC222-AA]
Output line: -1.53

Input line: Try the binder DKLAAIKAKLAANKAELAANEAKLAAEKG [APC1987-AA]
Output line: -1.68
